# System: HCT-116 (Colorectal Carcinoma);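 further: after 72 h of two-drug dosing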
# protocol summary: Bliss excess, mean over the matrix (fraction); higher = more synergy
test readout: Bliss excess

Identify Bliss excess associated with the molecule COc1cccc2c1C(=O)c1c(O)c3c(c(O)c1C2=O)C[C@@](O)(C(=O)CO)C[C@@H]3O[C@H]1C[C@H](N)[C@H](O)[C@H](C)O1 [Doxorubicin] + Cc1cc2ncnn2cc1Nc1ncc2c(n1)n(C1CCOCC1)c(=O)n2C [AZD7648] (first compound max 1 µM, 7x7, partner max 10 µM)
0.0556

* * *

# Tested on: SK-LMS-1 (Other Solid Carcinomas)
# protocol summary: combination Emax (second highest fraction inhibited in the dose matrix, 72 h); higher = more inhibition; extreme values may be limits of the assay
Please enter Criterion met where combination Emax is greater than or equal to 0.5, and Criterion not met where it is lower.

Solved entries:
- compound: "NC1(C(=O)N[C@@H](CCO)c2ccc(Cl)cc2)CCN(c2ncnc3[nH]ccc23)CC1 [Capivasertib] + CC(=O)c1c(C)c2cnc(Nc3ccc(N4CCNCC4)cn3)nc2n(C2CCCC2)c1=O [Palbociclib] (first compound max 10 µM, 7x7, partner max 10 µM)"
  label class: "Criterion not met"
- compound: "C[C@@H]1COCCN1c1cc(C2([S@](C)(=N)=O)CC2)nc(-c2ccnc3[nH]ccc23)n1 [AZD6738] + C1CC(C1)(C(=O)[O-])C(=O)[O-].N.N.[Pt+2] [Carboplatin] (first compound max 10 µM, 7x7, partner max 10 µM)"
  label class: "Criterion not met"
- compound: "Cc1c2c(nn1C)CSCc1cc(n(C)n1)CSc1cc(c3ccccc3c1)OCCCc1c(C(=O)O)n(C)c3c-2c(Cl)ccc13 [AZD5991] + CN(C)CCCOc1ccc(-c2ccc3ncc4c(c3c2)n(C2CCOCC2)c(=O)n4C)cn1 [AZD0156] (first compound max 1 µM, 7x7, partner max 1 µM)"
  label class: "Criterion not met"
- compound: "CN(CCO)CC[C@H](CSc1ccccc1)Nc1ccc(S(=O)(=O)NC(=O)c2ccc(N3CCC([C@@H](O)c4ccccc4-c4ccc(Cl)cc4)CC3)cc2)cc1S(=O)(=O)C(F)(F)F [AZD4320] + Cn1cnc2c(F)c(Nc3ccc(Br)cc3Cl)c(C(=O)NOCCO)cc21 [Selumetinib] (first compound max 1 µM, 7x7, partner max 3 µM)"
  label class: "Criterion met"
- compound: "O=C(c1cc(Cc2n[nH]c(=O)c3ccccc23)ccc1F)N1CCN(C(=O)C2CC2)CC1 [Olaparib] + COc1nnc2ccc(N3CCC(c4ccc(OCCN5CCN(C)C(=O)[C@H]5C)cc4)CC3)nn12 [AZD5153] (first compound max 10 µM, 7x7, partner max 1 µM)"
  label class: "Criterion met"
- compound: "CN(CCO)CC[C@H](CSc1ccccc1)Nc1ccc(S(=O)(=O)NC(=O)c2ccc(N3CCC([C@@H](O)c4ccccc4-c4ccc(Cl)cc4)CC3)cc2)cc1S(=O)(=O)C(F)(F)F [AZD4320] + CN(C)CCCOc1ccc(-c2ccc3ncc4c(c3c2)n(C2CCOCC2)c(=O)n4C)cn1 [AZD0156] (first compound max 1 µM, 7x7, partner max 1 µM)"
  label class: "Criterion not met"

Please look at the following compound next.
Could you verify whether the entry COc1cccc(OCCCN)c1-c1cc(Nc2cnc(C#N)cn2)n[nH]1 [Prexasertib] + CCc1c2c(nc3ccc(O)cc13)-c1cc3c(c(=O)n1C2)COC(=O)[C@]3(O)CC [SN-38] (first compound max 1 µM, 7x7, partner max 0.3 µM) shows combination Emax of no less than 0.5?
Criterion met
